Tested on: MDA-MB-231
Test: Cytotoxicity against ER-negative human MDA-MB-231 cells after 48 hr by SRB assay
Settings: MDA-MB-231, 48 h
MEASUREMENT_NAME: pIC50
One number for each entry, as −log10 of the molar value.

smiles_text=C[C@]12CCC(=O)C(O)=C1C=C[C@@H]1[C@@H]2CC[C@]2(C)/C(=C/c3ccccn3)CC[C@@H]12 quantitative_readout=5.03
smiles_text=C[C@]12CC[C@H]3[C@@H](C[C@@H]4O[C@@]45C[C@@H](O)CC[C@]35C)[C@@H]1CC[C@@]2(O)Cc1cccc[n+]1[O-] quantitative_readout=5.12
smiles_text=CC(=O)O[C@@H]1C=C2CC[C@@H]3[C@H](CC[C@@]4(C)[C@H]3CC[C@@]4(O)Cc3ccccn3)[C@@]2(C)CC1 quantitative_readout=4.99

Attention now shifts to the item below.
pIC50 for C[C@]12CC[C@H](O)[C@H](O)C1=CC[C@@H]1[C@@H]2CC[C@@]2(C)[C@H]1CC[C@@]2(O)Cc1ccccn1 is 5.05

Source listed as ChEMBL document CHEMBL2040837.
